Measured values drawn from patent US9776972B2 for this set.

- target of assay: human PRMT1 (Homo sapiens, UniProt Q99873)
- Construct: GST-tagged PRMT1; made in house; host or cells: High Five insect cells (baculovirus)
- Sequence (Q99873 with tags, fused parts or gaps): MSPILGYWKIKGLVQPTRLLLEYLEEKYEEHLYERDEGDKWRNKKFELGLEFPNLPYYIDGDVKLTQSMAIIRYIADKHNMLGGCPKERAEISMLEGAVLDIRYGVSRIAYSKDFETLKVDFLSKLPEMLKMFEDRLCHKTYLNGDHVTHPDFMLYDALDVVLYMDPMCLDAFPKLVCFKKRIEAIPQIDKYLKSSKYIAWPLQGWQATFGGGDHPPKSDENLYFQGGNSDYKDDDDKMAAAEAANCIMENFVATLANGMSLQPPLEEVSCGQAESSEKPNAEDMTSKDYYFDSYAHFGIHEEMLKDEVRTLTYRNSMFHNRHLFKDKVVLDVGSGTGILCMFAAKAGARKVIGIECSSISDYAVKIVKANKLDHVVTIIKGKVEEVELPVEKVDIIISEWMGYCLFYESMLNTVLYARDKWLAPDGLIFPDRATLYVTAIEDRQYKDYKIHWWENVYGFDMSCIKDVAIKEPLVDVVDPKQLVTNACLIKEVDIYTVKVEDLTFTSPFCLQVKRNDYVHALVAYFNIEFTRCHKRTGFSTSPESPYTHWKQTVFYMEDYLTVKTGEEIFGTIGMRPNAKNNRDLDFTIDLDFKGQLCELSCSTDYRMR
- assay text: PRMT1 Biochemical Assay (3H-SAM Flashplate, peptide substrate)
- test parameters: single experiment or average of multiple experiments
measurement name: pIC50
Hey, just a heads up that pIC50 is the negative log base 10 of the concentration in molar.

Input line: Query (compound): CC[C@@H](C)Oc1ccc(-c2n[nH]cc2CN(C)CCNC)cc1 ; field requested: pIC50
Output line: 8.15

Input line: # query: pIC50 of entry CCn1ncc(CN(C)CCNC)c1-c1ccc(F)cc1
Output line: 6.58

Input line: So what's the measured pIC50 for this one? CNCCN(C)Cc1c[nH]nc1-c1ccc(Oc2ccncn2)cc1
Output line: 7.93

Input line: State the recorded pIC50 for this entry: CN(CCN)Cc1c[nH]nc1-c1ccc(Oc2ccc(F)cc2)cc1
Output line: 8.50

Input line: Quick one: pIC50 for CN(CCN)Cc1c[nH]nc1-c1ccc(C#N)cc1 ?
Output line: 8.22

Input line: Any idea what its pIC50 is? The compound is CNCCN(C)Cc1n[nH]cc1-c1ccc(Oc2ccccc2)cc1
Output line: 8.50
